Sourced from paper PMC8125995

System: 3D7 strain of Plasmodium falciparum
EXPERIMENT NOTES: In vitro antiplasmodial activity (SYBR Green, 48 h)
Format: cell-based
ASSAY CONTEXT: chloroquine-sensitive 3D7 strain, 48 h incubation, SYBR Green, mean ± S.D. of two, three or four independent experiments, read-out: Antiplasmodial Activity IC50
Consider the cut-off 0.1 µg/mL. If the recorded IC50 is strictly smaller, the label is Condition met; if not, the label is Condition not met.

COMPOUND	CLASS LABEL
O=C(O)CC(=O)OC[C@H]1O[C@@H](Oc2cc(O)c3c(=O)c(-c4ccc(O)cc4)coc3c2)[C@H](O)[C@@H](O)[C@@H]1O	Condition not met
O=c1c(-c2ccc(O)cc2)coc2cc(O[C@@H]3O[C@H](CO)[C@@H](O)[C@H](O)[C@H]3O)cc(O)c12	Condition not met
COc1cc(OC2OC(CO)C(O)C(O)C2O)cc2occ(-c3ccc(O)cc3)c(=O)c12 (stereo not shown)	Condition not met
O=c1c(-c2ccc(O)c(O)c2)coc2cc(O)cc(O)c12	Condition not met
O=C(O)C[C@](O)(Cc1ccc(O)cc1)C(=O)O	Condition met
C[C@@H]1CC[C@H]2[C@@H](C)C(=O)O[C@@H]3O[C@@]4(C)CC[C@@H]1[C@]32OO4 [Artemisinin, reference compound]	Condition met
COc1cc(O)cc2occ(-c3ccc(O)cc3)c(=O)c12	Condition met

* * *

EXPERIMENT NOTES: Cytotoxicity, Cell Titer-Glo Luminescent Cell Viability Assay
Type: cell-based
ASSAY CONTEXT: human, Cytotoxic Activity CC50
Consider the cut-off 300 µg/mL. If the recorded CC50 at 3 days is strictly smaller, the label is Criterion met; if not, the label is Criterion not met.

COMPOUND	CLASS LABEL
COc1cc(O)cc2occ(-c3ccc(O)cc3)c(=O)c12	Criterion met
O=c1c(-c2ccc(O)cc2)coc2cc(O[C@@H]3O[C@H](CO)[C@@H](O)[C@H](O)[C@H]3O)cc(O)c12	Criterion met
O=C(O)CC(=O)OC[C@H]1O[C@@H](Oc2cc(O)c3c(=O)c(-c4ccc(O)cc4)coc3c2)[C@H](O)[C@@H](O)[C@@H]1O	Criterion met
O=c1c(-c2ccc(O)c(O)c2)coc2cc(O)cc(O)c12	Criterion met
COc1cc(OC2OC(CO)C(O)C(O)C2O)cc2occ(-c3ccc(O)cc3)c(=O)c12 (stereo not drawn)	Criterion not met
O=C(O)C[C@](O)(Cc1ccc(O)cc1)C(=O)O	Criterion not met

* * *

EXPERIMENT NOTES: Cytotoxicity, Cell Titer-Glo Luminescent Cell Viability Assay
Format: cell-based
ASSAY CONTEXT: human; THP-1 cells, 3 days incubation; read-out: Cytotoxic Activity CC50
Procedure: The cytotoxic effect of the crude extract and compounds thereof on THP-1 human acute leukemia cell line was carried using the Cell Titer-Glo Luminescent Cell Viability Assay (Promega). […] The cell viability was then evaluated using Cell Titer-Glo Luminescent Cell Viability Assay (Promega) according to the manufacturer’s instructions.

COMPOUND	CC50 at 3 days [µg/mL]
O=c1c(-c2ccc(O)cc2)coc2cc(O)cc(O)c12 [Compound 7, genistein]	116
